- Test system: INS-1E rat beta cells, no cytokines, CellTiter-Glo ATP, 48 h
- assayExplanation: cytokine-free beta-cell viability effect – INS-1E rat cells, ATP luminescence, cherry pick, counter-screen for beta-cell apoptosis protection project, dose response (AID 463229)
measuredParameter: AC50

These recorded examples may help you get a feel for the data.
INSERT INTO assay_data (molecule, measuredparameter, result) VALUES
  ('O=C(OCn1ncc(Cl)c(Cl)c1=O)c1ccccc1Cl', 'AC50', '7.84 µM'),
  ('CCOc1ccc(-n2c(O)c(/C=N/Nc3nc(C)cc(C)n3)c3ccccc3c2=O)cc1', 'AC50', '6.38 µM'),
  ('CC1=C(CO)C(=O)OC([C@@H](C)C2CC[C@H]3C4C[C@H]5O[C@]56[C@@H](O)C=CC(=O)[C@]6(C)C4CC[C@]23C)C1 (stereo not given in full)', 'AC50', '6.2 µM');

Q: Returns the measured AC50 for the input molecule. Input: "COc1ccc(-[n+]2c(C)cc(/C=C3\Sc4ccccc4N3C)cc2C)cc1"
Result: < 0.195 µM

Q: Now consider "C(=C\c1nc(N2CCCCCC2)c2ccccc2n1)/c1ccccc1" .
Result: 5.15 µM

* * *

- Test system: INS-1E rat beta cells, no cytokines, CellTiter-Glo ATP, 48 h
- assayExplanation: cytokine-free beta-cell viability effect – INS-1E rat cells, ATP luminescence, cherry pick, counter-screen for beta-cell apoptosis protection project, dose response (AID 463229)
measuredParameter: AC50

These recorded examples may help you get a feel for the data.
INSERT INTO assay_data (compound, measuredparameter, result) VALUES
  ('CCCCCc1ccc(OCCCC[n+]2cccc(C)c2)c(CCCCC)c1', 'AC50', '2.1 µM'),
  ('Cc1[nH]n(-c2ccccc2)c(=O)c1/C=N/Nc1nncc(-c2ccccc2)n1', 'AC50', '1.22 µM'),
  ('COc1ccc(Nc2nc(N3CCCC3)c3ccccc3n2)cc1', 'AC50', '9.85 µM'),
  ('COc1ccccc1N1CCN(Cc2ccc(O)c3ncccc23)CC1', 'AC50', '5.14 µM'),
  ('Oc1ccc(N=Nc2nccs2)c(O)c1', 'AC50', '6.64 µM');

Q: Returns the measured AC50 for the input compound. Input: Cc1cccc(Nc2nc(N)c([N+](=O)[O-])c(N3CC(C)CC(C)C3)n2)c1 (stereo unspecified)
Result: 14.8 µM

Q: Now consider "COc1ccc(NS(=O)(=O)c2ccc(-c3cnc(C4CC4)o3)cc2)cc1OC" .
Result: 6.58 µM

Q: Now consider "COc1ccc(C)cc1Nc1n[n+](-c2ccccc2)c(-c2ccc(N(C)C)cc2)s1" .
Result: 2.9 µM

Q: Now consider "Cc1ccc(-n2cccc2C(=S)N=P(N(C)C)(N(C)C)N(C)C)cc1" .
Result: 7.11 µM

Q: Now consider "CCCC[n+]1ccn(C2=C([O-])c3ccccc3C(=O)/C2=N\S(=O)(=O)c2ccc(Cl)cc2)c1" .
Result: 15.8 µM

* * *

- Tested on: INS-1E rat beta cells, no cytokines, CellTiter-Glo ATP, 48 h
- assayExplanation: cytokine-free beta-cell viability effect – INS-1E rat cells, ATP luminescence, cherry pick, counter-screen for beta-cell apoptosis protection project, dose response (AID 463229)
measuredParameter: AC50

These recorded examples may help you get a feel for the data.
INSERT INTO results (compound, measuredparameter, result) VALUES
  ('COC(=O)C1=C(C)N(Cc2ccccc2)C(=NCc2cccc(C(F)(F)F)c2)N[C@H]1c1cccc(F)c1', 'AC50', '8.07 µM'),
  ('CCCNC(=O)c1ccc2c(=O)c(O)c(-c3cccc(Br)c3)[nH]c2c1', 'AC50', '4.63 µM'),
  ('CCN(CC)S(=O)(=O)c1cc([N+](=O)[O-])ccc1NNC(=O)Nc1ccc(Cl)c(Cl)c1', 'AC50', '6.54 µM'),
  ('COc1cc(/C=C2\CC(C(C)(C)C)C/C(=C\c3cc(OC)c(OC)c(OC)c3)C2=O)cc(OC)c1OC (stereo not given)', 'AC50', '6.04 µM');

Proceeding to the next compound to report its AC50.
Q: Returns the measured AC50 for the input compound. Input: "Cc1ccc(-c2cc(-c3ccc(C)cc3)[n+](-c3ccccc3)c(-c3ccc(C)cc3)c2)cc1"
Result: 0.577 µM

* * *

- Tested on: INS-1E rat beta cells, no cytokines, CellTiter-Glo ATP, 48 h
- assayExplanation: cytokine-free beta-cell viability effect – INS-1E rat cells, ATP luminescence, cherry pick, counter-screen for beta-cell apoptosis protection project, dose response (AID 463229)
Listing of entries alongside the reported AC50.

INSERT INTO measurements (compound, measuredparameter, result) VALUES
  ('CC(C)(C)C1C/C(=C/c2ccccn2)C(=O)/C(=C/c2ccccn2)C1 (stereo not given)', 'AC50', '0.672 µM'),
  ('Cc1ccc2nc(/C(C#N)=C\c3ccc([N+](=O)[O-])o3)[nH]c2c1', 'AC50', '2.96 µM');

Proceeding to the next compound to report its AC50.
Q: Returns the measured AC50 for the input compound. Input: "O=[N+]([O-])c1c(Nc2ccccn2)cc(Cl)c2nonc12"
Result: 7.39 µM

* * *

- System: INS-1E rat beta cells, no cytokines, CellTiter-Glo ATP, 48 h
- assayExplanation: cytokine-free beta-cell viability effect – INS-1E rat cells, ATP luminescence, cherry pick, counter-screen for beta-cell apoptosis protection project, dose response (AID 463229)
Listing of entries alongside the reported AC50.

These recorded examples may help you get a feel for the data.
INSERT INTO results (compound, targetorsystem, measuredparameter, result) VALUES
  ('c1ccc(CNc2nc(-c3ccccn3)nc3ccccc23)cc1', 'INS-1E rat beta cells, no cytokines, CellTiter-Glo ATP, 48 h', 'AC50', '7.68 µM'),
  ('CC(=O)c1ccc(NC(=S)NCc2cccnc2)cc1', 'INS-1E rat beta cells, no cytokines, CellTiter-Glo ATP, 48 h', 'AC50', '5.53 µM'),
  ('COc1ccc(-c2ccc([C@H]3[C@@H]4C=CCC[C@@]4(C)C(=O)N3Cc3ccccc3)c(F)c2)cc1', 'INS-1E rat beta cells, no cytokines, CellTiter-Glo ATP, 48 h', 'AC50', '22.5 µM'),
  ('COc1ccc(OC)c2c1C(=O)C(Cl)=C(Cl)C2=O', 'INS-1E rat beta cells, no cytokines, CellTiter-Glo ATP, 48 h', 'AC50', '8.18 µM'),
  ('Cc1ccccc1NC1=C/C(=N\S(=O)(=O)c2ccc(C(=O)O)cc2)c2ccccc2C1=O', 'INS-1E rat beta cells, no cytokines, CellTiter-Glo ATP, 48 h', 'AC50', '12 µM');

Q: Lab request: please report AC50 under test system INS-1E rat beta cells, no cytokines, CellTiter-Glo ATP, 48 h for Cc1ccc2[nH]c(=O)c(C3C(C#N)=C(N)Oc4c3ccc3cccnc43)cc2c1 (stereo unspecified)
Result: 4.74 µM

Q: Now consider "C(=N\Nc1nncc2ccccc12)/c1ccccn1" .
Result: 4.47 µM

Q: Now consider "O=C(N/N=C/c1cc(Br)ccc1OC(=O)c1ccc(Br)cc1)c1ccncc1" .
Result: 6.01 µM

Q: Now consider "Cc1ccc(C(=O)NC(=S)/C=C2\N(C)c3ccccc3C2(C)C)cc1" .
Result: 4.23 µM

Q: Now consider CC1Sc2ccc(S(=O)(=O)N3CCC(C(=O)Nc4ccc(Cl)cc4)CC3)cc2NC1=O (stereo unspecified) .
Result: 6.13 µM

Q: Now consider "O=c1cc(CSc2ccc(Cl)cc2)nc(-c2ccccn2)[nH]1" .
Result: 11.6 µM

* * *

- Tested on: INS-1E rat beta cells, no cytokines, CellTiter-Glo ATP, 48 h
- assayExplanation: cytokine-free beta-cell viability effect – INS-1E rat cells, ATP luminescence, cherry pick, counter-screen for beta-cell apoptosis protection project, dose response (AID 463229)
Calls of active or inactive are those of the source.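 How the source made its calls: active means compounds raising the signal whose fitted half-maximal concentration is at or below their top tested dose (cut at about 25 µM in these data); inconclusive means flat fit at 30 to 70% activity, or a poor fit; inactive means the rest.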
Reply using exactly one outcome from true (active), false (inactive)

Worked examples, 3 compounds total:
INSERT INTO results (compound, classassignment) VALUES
  ('CC(C)C(=O)NC(c1cccs1)c1cc([N+](=O)[O-])c2cccnc2c1O (stereo unspecified)', 'true'),
  ('Cc1nc2cc(-c3ccccc3)sc2c(=O)n1N', 'true'),
  ('C(C#CCCCCCCCCC[n+]1ccccc1)#CCCCCCCCCC[n+]1ccccc1', 'true');

Q: Identify the outcome logged in this assay for the compound shown: "CCc1cc(CNC(=O)c2ccc3nc(Cc4ccc(OC)c(OC)c4)oc3c2)on1"
Result: true

Q: Now consider "Oc1ccc(CN2CCc3ccccc3C2)c2cccnc12" .
Result: true

Q: Now consider "CCCCC[n+]1cccc2c3ccccc3ccc21" .
Result: true

Q: Now consider "COc1cnc(-c2ccccn2)nc1NC(C)C" .
Result: true

Q: Now consider "CN(C)C(=O)c1ccc(NC(=O)c2cccc(S(=O)(=O)N3CCCCCC3)c2)cc1" .
Result: false

Q: Now consider "NS(=O)(=O)c1ccc(N=Nc2ccc(O)c3ncccc23)cc1" .
Result: true

Q: Now consider "COc1cc(SC#N)ccc1N=Cc1c(C)[nH]n(-c2ccc(C)c(C)c2)c1=O" .
Result: true

Q: Now consider "CCCc1cc(=O)n2[nH]cc(-c3ccc(Cl)cc3)c2n1" .
Result: true

Q: Now consider "COC(=O)C[C@]1(C(=O)OC)CN(C#N)N(c2ccc(Cl)cc2)C12c1ccccc1-c1ccccc12" .
Result: true

Q: Now consider "Cc1ccccc1NC(=S)N/N=C/c1ccc(O)cc1O" .
Result: true

Q: Now consider "Cc1ccc(Sc2cc(C)nc(-c3ccccn3)n2)cc1" .
Result: false

Q: Now consider "CCCCCCn1ccc(=N)cc1" .
Result: true

Q: Now consider "O=C(Cc1cccs1)N/N=C\c1ccc([N+](=O)[O-])s1" .
Result: true

Q: Now consider "CN1c2ccccc2N(C)C1(C)c1ccccc1" .
Result: true

Q: Now consider "CC1=NN(c2ccc(C)c(C)c2)C(=O)/C1=C\C=C\c1ccc([N+](=O)[O-])o1" .
Result: true
